Data origin: patent US20260053904A1

Biological target: T1, recombinant human EpCAM extracellular domain (human, UniProt P16422 24-265)
T1 construct: extracellular domain; Plate-coated antigen of the ELISAs; also called human EpCAM ECD; recombinant EpCAM antigen
T1 sequence (looked up): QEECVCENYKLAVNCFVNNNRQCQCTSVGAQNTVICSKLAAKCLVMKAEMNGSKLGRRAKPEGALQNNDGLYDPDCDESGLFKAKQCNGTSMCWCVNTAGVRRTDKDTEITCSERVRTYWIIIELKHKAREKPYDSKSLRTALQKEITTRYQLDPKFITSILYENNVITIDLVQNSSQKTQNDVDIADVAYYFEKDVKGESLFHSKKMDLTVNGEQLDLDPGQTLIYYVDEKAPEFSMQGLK
Experiment: ELISA with pH titration, human EpCAM
readoutKind: pH inflection point (pH)
Numbers only, in pH.

Query: Dear colleague, please send me the reported pH inflection point for BAP-105.4-03-02 (antibody, V domains shown, Humanized) VH: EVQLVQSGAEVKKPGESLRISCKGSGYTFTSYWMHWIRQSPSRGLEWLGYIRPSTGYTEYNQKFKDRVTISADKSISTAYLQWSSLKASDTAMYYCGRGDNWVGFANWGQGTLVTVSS VL: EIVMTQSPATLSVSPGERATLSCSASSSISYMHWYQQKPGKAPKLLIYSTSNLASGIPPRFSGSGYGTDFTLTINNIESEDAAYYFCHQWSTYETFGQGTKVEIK when you can.
Result: 6.82
